- System: Plasmodium falciparum
- Assay Remarks: Antimalarial activity against chloroquine-resistant Plasmodium falciparum FCB1 in human blood by [3H]hypoxanthine uptake
- Type: functional, organism-based
Test Readout: pIC50
Numbers only, as −log10 of the molar value.

Notebook: `CC(C)[C@@H]1CC=C[C@H]2[C@H]3[C@@](C)(C=CC(=O)[C@@]3(C)O)CC[C@]12CBr` , pIC50 read as 6.00
